# assayProtocol: Octanol water partition coefficient was determined at pH 7.4
# Format: physicochemical
measuredParameter: logD
Write no unit; give the number alone.

// known answers, use as guide
Input line: // returns reported logD for input `NCc1c(N)nc(N)nc1-c1ccc(Cl)cc1Cl`
Output line: 0.4

Input line: // returns reported logD for input `NCc1c(N)nc(-c2ccccc2)nc1-c1ccc(Cl)cc1Cl`
Output line: 3

Input line: // returns reported logD for input `COc1nc(N)c(CN)c(-c2ccc(Cl)cc2Cl)n1`
Output line: 1.6

Now for a further compound.
Input line: // returns reported logD for input `Cc1nc(N)c(CN)c(-c2ccc(Cl)cc2Cl)n1`
Output line: 1.4

Values compiled from ChEMBL document CHEMBL1149232.
